assayTarget: cathepsin D (Homo sapiens, UniProt P07339)
Sequence (P07339 65-412): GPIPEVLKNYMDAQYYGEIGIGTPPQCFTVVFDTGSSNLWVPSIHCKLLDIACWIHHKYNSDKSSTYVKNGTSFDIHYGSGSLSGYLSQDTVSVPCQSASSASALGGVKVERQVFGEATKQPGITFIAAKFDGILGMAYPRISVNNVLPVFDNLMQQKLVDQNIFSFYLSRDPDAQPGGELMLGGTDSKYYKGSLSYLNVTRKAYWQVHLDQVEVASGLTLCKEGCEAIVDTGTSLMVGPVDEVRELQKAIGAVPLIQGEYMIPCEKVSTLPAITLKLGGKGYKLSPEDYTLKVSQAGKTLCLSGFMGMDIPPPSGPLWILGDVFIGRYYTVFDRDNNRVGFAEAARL
procedureText: Cathepsin D cuvette assay for IC50 and inhibition constants (Ki)
Format: biochemical
conditionDescription: Table VI, P1-varied 204 compound library, purified
measuredAttribute: Ki (nM)
Field: numeric (nM). Do not append units.

Here is how some compounds turned out for Ki.
{"columns": ["compound", "assayTarget", "valueReported"],
 "data": [
  ["COc1cc(Br)c(C(=O)N[C@@H](Cc2ccc3ccccc3c2)[C@@H](O)CN(CCc2ccc(Cl)cc2Cl)C(=O)CCN2C(=O)c3ccccc3C2=O)cc1OC", "cathepsin D (Homo sapiens, UniProt P07339)", 2.6],
  ["COc1cc(Br)c(C(=O)N[C@@H](Cc2ccc(-c3ccccc3)cc2)C(O)CN(CCc2ccc(Cl)cc2Cl)C(=O)CCN2C(=O)c3ccccc3C2=O)cc1OC (stereo partly shown)", "cathepsin D (Homo sapiens, UniProt P07339)", 2.6],
  ["COc1cc(Br)c(C(=O)N[C@@H](Cc2ccc(Br)cc2)[C@@H](O)CN(CCc2ccc(Cl)cc2Cl)C(=O)CCN2C(=O)c3ccccc3C2=O)cc1OC", "cathepsin D (Homo sapiens, UniProt P07339)", 6.7]
]}

Pending compound:
Quickly give me recorded Ki for COc1cc(Br)c(C(=O)N[C@@H](Cc2cccc(Oc3ccccc3)c2)[C@@H](O)CN(CCc2ccc(Cl)cc2Cl)C(=O)CCN2C(=O)c3ccccc3C2=O)cc1OC
1.9

* * *

assayTarget: human liver cathepsin D (Homo sapiens)
Construct: human liver cathepsin D (Calbiochem); purchased Calbiochem; host or cells: human liver
Sequence (P07339 169-412 limits assumed): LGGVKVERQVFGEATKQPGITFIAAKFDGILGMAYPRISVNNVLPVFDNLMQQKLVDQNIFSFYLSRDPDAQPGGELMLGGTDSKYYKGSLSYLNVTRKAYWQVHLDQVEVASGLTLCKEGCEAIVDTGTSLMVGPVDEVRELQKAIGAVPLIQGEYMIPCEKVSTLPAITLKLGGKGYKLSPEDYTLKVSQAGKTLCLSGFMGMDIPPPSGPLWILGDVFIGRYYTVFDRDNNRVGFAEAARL
Sequence (P07339 65-162 limits assumed): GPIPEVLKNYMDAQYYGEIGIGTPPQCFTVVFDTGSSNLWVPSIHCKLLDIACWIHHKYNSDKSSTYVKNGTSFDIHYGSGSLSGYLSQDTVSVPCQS
procedureText: High-throughput fluorometric cathepsin D assay (library screen)
Type: biochemical
conditionDescription: 330 nM inhibitor, crude compound, approximate concentration; read-out: Inhibition of Cathepsin D in Library Screen
molecules and their reported inhibition at 0.33 µM

{"columns": ["smiles", "inhibition at 0.33 µM"],
 "data": [
  ["O=C(CCn1c(=O)oc2ccccc21)N[C@@H](Cc1ccccc1)[C@@H](O)CN(CCc1ccc(Cl)cc1Cl)C(=O)CCc1ccc(Cl)c(Cl)c1", "≥ 50%"]
]}

Give recorded inhibition at 0.33 µM. COc1ccc(C(=O)N[C@@H](Cc2ccccc2)[C@@H](O)CN(CCc2ccc(Cl)cc2Cl)C(=O)CCN2C(=O)c3ccccc3C2=O)c(Cl)c1OC
≥ 50%

In one line, give reported inhibition at 0.33 µM of the entry COc1ccc(C(=O)N[C@@H](Cc2ccccc2)[C@@H](O)CN(CCc2ccc3c(c2)OCO3)C(=O)CCN2C(=O)c3ccccc3C2=O)c(Cl)c1OC .
≥ 50%
